Assay text: ChromlogD assay
Type: physicochemical
Conditions: pH 7.4
Property name: chromatographic logD

chromatographic logD for Cn1c(=O)n(-c2ccc(C(C)(C)C#N)cc2)c2c3cc(-c4cnc5ccccc5c4)ccc3ncc21 [Compound 1, NVP-BEZ235, reference compound] is 4.75

---

Test system: HepG2 cell line
Conditions: human, 48 h
Marks after values point to notes of the source that are not given here.
Property name: HepG2 TC50

| Compound | HepG2 TC50 |
| --- | --- |
| Cn1c(=O)n(-c2ccc(C(C)(C)C#N)cc2)c2c3cc(C#Cc4cccnc4)ccc3ncc21 [Compound 10, reference compound] | 0.14^d μM |
| CN(C)c1ccc(-n2c(=O)n(C)c3cnc4ccc(-c5ccncc5)cc4c32)cc1 [Compound 16h] | 2.34 µM |
| Cn1c(=O)n(-c2ccc(C(C)(C)C#N)cc2)c2c3ccccc3ncc21 | >50 µM |
| Cn1c(=O)n(-c2ccc(C(C)(C)C#N)cc2)c2c3cc(-c4ccncc4)ccc3ncc21 | 3.43 µM |

HepG2 TC50 for "Cn1c(=O)n(-c2ccc(C(C)(C)C#N)cc2)c2c3cc(-c4ccccc4)ccc3ncc21" is 1.82^d μM

---

# Lookup of reported chromatographic logD keyed by entry
Assay text: ChromlogD assay
Format: physicochemical
Conditions: Table 4; measured value (outside parentheses); pH 7.4
Answer with a number only.

| Compound | chromatographic logD |
| --- | --- |
| COc1ccc(-n2c(=O)n(C)c3cnc4ccc(-c5ccncc5)cc4c32)cc1 [Compound 16g] | 3.03 |

Could you now look at the following compound, please?
chromatographic logD for Cc1ccc(-n2c(=O)n(C)c3cnc4ccc(-c5ccncc5)cc4c32)cc1 [Compound 16e] is 3.5

Where do these numbers come from? They come from paper PMC4099174.
